molecular target: Glycogen synthase kinase-3 beta (Homo sapiens); type: cell-based, Sf9
Sequence (P49841 whole entry): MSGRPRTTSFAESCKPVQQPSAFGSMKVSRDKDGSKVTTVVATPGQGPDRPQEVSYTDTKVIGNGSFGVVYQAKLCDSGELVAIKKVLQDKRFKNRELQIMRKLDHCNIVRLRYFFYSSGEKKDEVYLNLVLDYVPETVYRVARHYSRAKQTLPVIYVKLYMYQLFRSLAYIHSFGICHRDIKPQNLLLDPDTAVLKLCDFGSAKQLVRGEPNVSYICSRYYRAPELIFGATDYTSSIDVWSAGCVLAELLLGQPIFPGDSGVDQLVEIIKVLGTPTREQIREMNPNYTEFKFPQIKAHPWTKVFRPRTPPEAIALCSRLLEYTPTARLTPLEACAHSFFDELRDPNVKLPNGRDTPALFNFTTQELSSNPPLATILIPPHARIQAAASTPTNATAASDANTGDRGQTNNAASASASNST
valueType: IC50 (µM)
Give the value, in units of µM, as a plain number.

Examples with answers:
compound	resultUnits	observedValue
O=C1NC(NCCCn2ccnc2)=N/C1=C\c1ccc2ncsc2c1	µM	6.19
CO[C@@H]1Cc2ccccc2[C@H]1NC1=N/C(=C\c2ccc3ncsc3c2)C(=O)N1 (racemic)	µM	1.27

Input line: Please provide the recorded IC50 for `O=C1NC(NC[C@@H](O)c2ccccc2)=N/C1=C\c1ccc2ncsc2c1` , tested on Glycogen synthase kinase-3 beta (Homo sapiens).
Output line: 2.6

Input line: # query: IC50 | item `CC(=O)NC12CC3CC(C1)CC(NC1=N/C(=C\c4ccc5ncsc5c4)C(=O)N1)(C3)C2` | system: Glycogen synthase kinase-3 beta (Homo sapiens)
Output line: 0.663

====

Target: Dual specificity tyrosine-phosphorylation-regulated kinase 4 (Homo sapiens, UniProt Q9NR20)
Sequence (Q9NR20 whole entry): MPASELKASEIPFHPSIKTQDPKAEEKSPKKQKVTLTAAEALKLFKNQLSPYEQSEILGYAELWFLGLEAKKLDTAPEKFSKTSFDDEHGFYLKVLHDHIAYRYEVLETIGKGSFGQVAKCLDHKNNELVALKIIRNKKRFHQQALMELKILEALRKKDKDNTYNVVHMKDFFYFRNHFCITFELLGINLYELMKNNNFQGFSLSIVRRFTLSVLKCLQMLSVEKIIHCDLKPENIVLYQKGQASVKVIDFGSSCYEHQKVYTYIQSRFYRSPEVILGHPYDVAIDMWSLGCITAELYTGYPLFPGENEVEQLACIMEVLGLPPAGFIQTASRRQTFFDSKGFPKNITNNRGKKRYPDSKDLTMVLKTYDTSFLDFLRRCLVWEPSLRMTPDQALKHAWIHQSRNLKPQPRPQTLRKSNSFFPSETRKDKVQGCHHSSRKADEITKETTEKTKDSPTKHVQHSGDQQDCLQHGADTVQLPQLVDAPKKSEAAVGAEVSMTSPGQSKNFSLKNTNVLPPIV
valueType: pIC50
Give only the number. pIC50 is defined as minus log10 of concentration in molar units.

Input line: Could you share which pIC50 value was measured for `O=C1NC(N[C@@H](CO)CC2CC2)=N/C1=C\c1ccc2ncsc2c1` ?
Output line: 6.14

Input line: Requested field: pIC50. Item: `O=C1NC(NCc2ccncc2)=N/C1=C\c1ccc2ncsc2c1`
Output line: 5.91

Input line: Which pIC50 value is on record for `O=C1NC(NC2CCCCCC2)=N/C1=C\c1ccc2ncoc2c1` ?
Output line: 6.21

Input line: Any idea what pIC50 was measured for CN1CCCC(NC2=N/C(=C\c3ccc4ncsc4c3)C(=O)N2)C1 (racemic) ?
Output line: 5.15

Input line: # get_value(readout='pIC50', item= O=C1NC(NC(CO)C2CCCCC2)=N/C1=C\c1ccc2ncsc2c1 (racemic) )
Output line: 6.39

Input line: Could you tell me which pIC50 is on file for COC(=O)C1(NC2=N/C(=C\c3ccc4ncsc4c3)C(=O)N2)C2CC3CC(C2)CC1C3 (stereo unspecified) ?
Output line: 5.76

Input line: Could you share which pIC50 value was measured for `Cn1cc2cc(/C=C3\N=C(NC4CCCCCC4)NC3=O)ccc2n1` ?
Output line: 5.52

Input line: If you can, please state the reported pIC50 value of `COC(=O)[C@H](C)NC1=N/C(=C\c2ccc3ncsc3c2)C(=O)N1` .
Output line: 5.64

Input line: Value lookup for pIC50; key = `O=C1NC(NC2CCC(F)(F)CC2)=N/C1=C\c1ccc2ncsc2c1`
Output line: 5.70

Input line: Recorded pIC50 for `Cn1ccc(NC2=N/C(=C\c3ccc4ncsc4c3)C(=O)N2)n1` , please?
Output line: 5.38
